# Method summary: Plasma stability assay, monkey plasma
# Type: in vitro ADME, cynomolgus monkey
# Assay setup: 37° C., 2 μM, 480 min (as headed)
Please assign FALSE whenever % remaining at time point in minutes, 480 min is at or above 80%, and TRUE whenever it is below.

[[record]]
compound = "CCCCCCCCCCCC(=O)OCN1C(=O)CCc2ccc(OCCCCN3CCN(c4cccc(Cl)c4Cl)CC3)cc21 [Aripiprazole lauroxil, reference compound]"
class_name = "TRUE"

[[record]]
compound = "C=C1CC[C@@]2(O)C3Cc4ccc(OC(=O)OCCCCCCCCCCCC)c5c4[C@@]2(CCN3CC2CC2)[C@H]1O5"
class_name = "TRUE"

[[record]]
compound = "CCCCCCCCCCCCCCCC(=O)OC1CCCn2c1nc(C)c(CCN1CCC(c3noc4cc(F)ccc34)CC1)c2=O (centres unmarked) [Paliperidone palmitate, reference compound]"
class_name = "FALSE"


Query: Bench note: check whether C=C1CC[C@@]2(O)C3Cc4ccc(OCOC(=O)OCCCCCCCCCCCC)c5c4[C@@]2(CCN3CC2CC2)[C@H]1O5 shows % remaining at time point in minutes, 480 min below 80%
Result: FALSE

* * *

# Study target: KOR (Homo sapiens, UniProt P41145)
# Construct: expressed in transfected cells; membranes prepared from them
# Sequence (P41145 whole entry): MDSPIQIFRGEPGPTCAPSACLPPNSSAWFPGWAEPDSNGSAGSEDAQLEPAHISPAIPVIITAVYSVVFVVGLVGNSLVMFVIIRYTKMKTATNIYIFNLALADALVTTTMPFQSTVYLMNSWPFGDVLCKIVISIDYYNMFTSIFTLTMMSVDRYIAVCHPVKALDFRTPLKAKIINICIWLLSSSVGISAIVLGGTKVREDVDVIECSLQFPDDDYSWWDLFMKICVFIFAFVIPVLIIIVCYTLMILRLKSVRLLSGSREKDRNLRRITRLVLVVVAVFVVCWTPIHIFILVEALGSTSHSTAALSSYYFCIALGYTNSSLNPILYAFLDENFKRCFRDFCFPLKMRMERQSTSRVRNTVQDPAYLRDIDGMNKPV
# Method summary: Opioid receptor binding assay, KOR ([3H]Diprenorphine)
# Assay setup: KOR, MaxDose 10000 nM
Readout type: %Inh@MaxDose (%)
Numbers only, in %.

Examples with answers:
[[record]]
compound_string = "CCCCCCCCOC(=O)Oc1ccc2c3c1O[C@H]1C(=O)CC[C@@]4(O)C(C2)N(CC2CC2)CC[C@]314"
study_target = "KOR (Homo sapiens, UniProt P41145)"
unit_abbreviation = "%"
quantitative_result = 101.6

[[record]]
compound_string = "C=C1CC[C@@]2(O)C3Cc4ccc(OCOC(=O)CCCCCCCCCCCCCCC)c5c4[C@@]2(CCN3CC2CC2)[C@H]1O5"
study_target = "KOR (Homo sapiens, UniProt P41145)"
unit_abbreviation = "%"
quantitative_result = 101.8

[[record]]
compound_string = "C=C1CC[C@@]2(O)C3Cc4ccc(OC(=O)OCCCCCCCCCCCC)c5c4[C@@]2(CCN3CC2CC2)[C@H]1O5"
study_target = "KOR (Homo sapiens, UniProt P41145)"
unit_abbreviation = "%"
quantitative_result = 99.6

[[record]]
compound_string = "C=C1CC[C@@]2(O)C3Cc4ccc(OCOC(=O)OCCCCCCCCCCCC)c5c4[C@@]2(CCN3CC2CC2)[C@H]1O5"
study_target = "KOR (Homo sapiens, UniProt P41145)"
unit_abbreviation = "%"
quantitative_result = 82.9

[[record]]
compound_string = "C=C1CC[C@@]2(O)C3Cc4ccc(OCOC(=O)CCCCCCCCCCCCC)c5c4[C@@]2(CCN3CC2CC2)[C@H]1O5"
study_target = "KOR (Homo sapiens, UniProt P41145)"
unit_abbreviation = "%"
quantitative_result = 100.1


Kindly consider the entry below.
Query: Lab note: need %Inh@MaxDose for C=C1CC[C@@]2(O)C3Cc4ccc(OC(=O)CCCCCCCCCCCCCCCCCCCCC)c5c4[C@@]2(CCN3CC2CC2)[C@H]1O5 on KOR (Homo sapiens, UniProt P41145), anyone have it?
Result: 68.1

* * *

# Method summary: Plasma stability assay, rat plasma
# Format: in vitro ADME
# Assay setup: 37° C., 10 μM, 120 min
Readout type: % remaining at time point in minutes, 120 min (%)
Numbers only, in %.

[[record]]
compound = "C=C1CC[C@@]2(O)C3Cc4ccc(OC(=O)CCCCCCCCCCCCCCCCCCCCC)c5c4[C@@]2(CCN3CC2CC2)[C@H]1O5"
quantitative_result = 112


Each compound below has a reported value. Please supply its % remaining at time point in minutes, 120 min.
1. C=C1CC[C@@]2(O)C3Cc4ccc(OC(=O)CCCCCCCCCCCCCCC)c5c4[C@@]2(CCN3CC2CC2)[C@H]1O5 [Compound 56, reference compound]
2. C=C1CC[C@@]2(O)C3Cc4ccc(OC(=O)OCCCCCCCCCCCC)c5c4[C@@]2(CCN3CC2CC2)[C@H]1O5

Result:
1: 56.7; 2: 7.6

Query: # % remaining at time point in minutes, 120 min lookup, item CCCCCCCCCCCCCCCCCCCCCC(=O)Oc1ccc2c3c1O[C@H]1C(=O)CC[C@@]4(O)C(C2)N(CC2CC2)CC[C@]314
Result: 105.3

Data provenance is patent US10525055B2.
